- target_of_assay: T1, NPDP-peptide (Plasmodium falciparum)
- T1 peptide: KQPADGNPDPNANPNKNN
- assay_protocol: ELISA, peptide coated, titrated antibody

# binder, binding result
rows = [
    ("MGV3 (antibody, V domains shown, also called biotin-labeled MGV3; biotinylated MGV3) VH: EVQVVESGGDLVQPGGSLRLSCAVYGFTVSDSYMSWVRQAPGKGLEWVSVIYSGSSTYYIDSVKGRFTISRDRSKNTLYLQMNTLRVEDTALYYCARGPNDYRNRKYYYYMDVWGKGTAVTVSS VL: EIVLTQSPDTLSLSAGERVTLSCRASQSVDSPYLAWYQQRPGQTPRLLIFGASIRATDIPDRFSGGGSGTDFTLTISRLEPEDSGVYYCHQYGNAPYIFGQGTKLEIK", "binds"),
    ("MGH1 (antibody, V domains shown) VH: QVQLVQSGAEVKKPGASVRVSCKTSGYTFTDYYVHWVRQAPGHGLECMGWINPYIGVSKYAQKFQGRVTLTRDTSISTAYMEISRLTSDDTAVYYCAACSNVGCYVYWGQGSLVTVSS VL: DVVMTQSPLSLPVTLGQPASISCRSSQSLVYSDGNTYLNWFQQRPGQSPRRLIYKVSNRDSGVPDRFSGSGSGTDFTLKISRVEAEDVAIYFCMQGTHWPDTFGQGTKLEIK", "binds"),
]
